test.description: Covalent reversible inhibition of Leishmania cysteine protease B using Z-Phe-Arg-7-amido-4-methylcoumarin as substrate incubated for 2 mins followed by substrate addition by fluorescence assay
readout.kind: Ki (µM)

Consider the worked cases shown below.
{"item.smiles": "N#CC1(NC(=O)[C@H](Cc2ccccc2)N[C@H](c2ccc(Br)cc2)C(F)(F)F)CC1", "Ki, µM": 0.595}
{"item.smiles": "N#CC1(NC(=O)[C@H](Cc2ccccc2)N[C@H](c2ccccc2)C(F)(F)F)CC1", "Ki, µM": 1.41}
{"item.smiles": "Cc1ccc([C@H](N[C@@H](Cc2ccccc2)C(=O)NC2(C#N)CC2)C(F)(F)F)cc1", "Ki, µM": 4.07}

P = N#CC1(NC(=O)[C@H](Cc2ccccc2)N[C@@H](c2ccccc2)C(F)(F)F)CC1
Q = N#CC1(NC(=O)[C@H](Cc2ccccc2)N[C@@H](c2ccc(Br)cc2)C(F)(F)F)CC1
Problem: Compare P and Q and name the one whose reported Ki is smaller. Could you answer with the label of the item you picked?
Solution: Q

I = Cc1ccc([C@@H](N[C@@H](Cc2ccccc2)C(=O)NC2(C#N)CC2)C(F)(F)F)cc1
II = N#CC1(NC(=O)[C@@H](Cc2ccccc2)N[C@H](c2ccc(Br)cc2)C(F)(F)F)CC1
III = N#CC1(NC(=O)[C@@H](Cc2ccccc2)N[C@@H](c2ccccc2)C(F)(F)F)CC1
IV = N#CC1(NC(=O)[C@@H](Cc2ccccc2)N[C@H](c2ccccc2)C(F)(F)F)CC1
Problem: Sort (4 compounds) by Ki: min first. Please respond by ranking the labels in the order requested.
Solution: II, I, III, IV
(II: 0.795 µM, I: 1.5 µM, III: 4.4 µM, IV: 7.65 µM)

Attribution: ChEMBL document CHEMBL4725295
